PROTOCOL DETAILS: Pharmacokinetics in rats, plasma
Assay type: in vivo
STATED CONDITIONS: male, Sprague Dawley; rat plasma, SC, 1 mg/kg
Structures can show the parent of a compound that is named as a salt.

MOLECULE | READING UNIT | AUC(0-t)
CCN(C)CCc1c[nH]c2ccc(F)cc12 [Compound 4, hydrochloride] | ng·h/mL | 46.8

----------
Some compounds, each annotated with its measured AUC(0-t).
PROTOCOL DETAILS: Pharmacokinetics in mice, plasma
Type: in vivo, C57BL/6 mice
STATED CONDITIONS: male, C57BL/6; mouse plasma, SC, 1 mg/kg
Counter-ions that a name gives are not always drawn.
OBSERVATION TYPE: AUC(0-t) (ng·h/mL)

COMPOUND | OBSERVATION TYPE | READING UNIT | READOUT NUMBER
CN(C)CCc1c[nH]c2ccc(F)cc12 [Compound 5, hydrochloride] | AUC(0-t) | ng·h/mL | 11
CCN(C)CCc1c[nH]c2ccc(F)cc12 [Compound 4, hydrochloride] | AUC(0-t) | ng·h/mL | 57.5

----------
PROTOCOL DETAILS: Pharmacokinetics in rats, plasma
Assay type: in vivo
STATED CONDITIONS: male, Sprague Dawley; rat plasma, SC, 10 mg/kg
Counter-ions that a name gives are not always drawn.

MOLECULE | half-life [min]
CN(C)CCc1c[nH]c2ccc(F)cc12 [Compound 5, hydrochloride] | 33

----------
PROTOCOL DETAILS: Pharmacokinetics in mice, brain
Format: in vivo, C57BL/6 mice
STATED CONDITIONS: male, C57BL/6; mouse brain, IV, 1 mg/kg; read-out: Cmax (C0 back-extrapolated to t = 0)

MOLECULE | Cmax, ng/g
CN(C)CCc1c[nH]c2cccc(O)c12 [Psilocin, psilocin, reference compound] | 1200

----------
// reported half-life at 1 μM per item
System: monoamine oxidase A and B (MAO-A and MAO-B)
PROTOCOL DETAILS: Stability in the presence of monoamine oxidases (human liver mitochondria)
Format: in vitro ADME
STATED CONDITIONS: human liver mitochondria, pH 7.4; human mitochondrial preparation, 1 μM
Structures can show the parent of a compound that is named as a salt.

COMPOUND | half-life at 1 μM
CN(C)CCc1c[nH]c2ccccc12 [DMT, N,N-dimethyltryptamine, reference compound] | 0.285 h
CN(C)CCc1c[nH]c2cccc(O)c12 [Psilocin, psilocin, reference compound] | > 2.42 h
CCN(C)CCc1c[nH]c2cccc(O)c12 | > 2.42 h
CCCN(CC)CCc1c[nH]c2ccccc12 | > 2.42 h
CCN(C)CCc1c[nH]c2ccccc12 | > 2.42 h
COc1ccc2[nH]cc(CCN(C)C)c2c1 [Compound 5-MeO-DMT, 5-methoxy-N,N-dimethyltryptamine, reference compound] | 0.882 h
CCCN(CC)CCc1c[nH]c2ccc(F)cc12 [Compound 3, hydrochloride] | > 2.42 h
CN(C)CCc1c[nH]c2ccc(F)cc12 [Compound 5, hydrochloride] | 0.145 h
CCN(C)CCc1c[nH]c2ccc(F)cc12 [Compound 4, hydrochloride] | > 2.42 h

----------
PROTOCOL DETAILS: Metabolic stability in mouse liver microsomes (MLM)
Assay type: in vitro ADME, CD-1 mice
STATED CONDITIONS: CD-1, mouse, pooled mouse liver microsomes, pH 7.4, NADPH
Counter-ions that a name gives are not always drawn.
OBSERVATION TYPE: log10 microsomal CLint at 1 μM (log10 of the value in µL/min/mg)

MOLECULE | OBSERVATION TYPE | READOUT NUMBER
CCCN(CC)CCc1c[nH]c2ccc(F)cc12 [Compound 3, hydrochloride] | log10 microsomal CLint at 1 μM | 2.40
CN(C)CCc1c[nH]c2ccccc12 [DMT, N,N-dimethyltryptamine, reference compound] | log10 microsomal CLint at 1 μM | 1.30
COc1ccc2[nH]cc(CCN(C)C)c2c1 [Compound 5-MeO-DMT, 5-methoxy-N,N-dimethyltryptamine, reference compound] | log10 microsomal CLint at 1 μM | 1.45
CN(C)CCc1c[nH]c2cccc(O)c12 [Psilocin, psilocin, reference compound] | log10 microsomal CLint at 1 μM | 1.04
CCN(C)CCc1c[nH]c2ccc(F)cc12 [Compound 4, hydrochloride] | log10 microsomal CLint at 1 μM | 1.46
CCCN(CC)CCc1c[nH]c2ccccc12 [Compound 1, ethylpropyltryptamine] | log10 microsomal CLint at 1 μM | 2.36
CCN(C)CCc1c[nH]c2ccccc12 [Compound 2, methylethyltryptamine] | log10 microsomal CLint at 1 μM | 1.13
CN(C)CCc1c[nH]c2ccc(F)cc12 [Compound 5, hydrochloride] | log10 microsomal CLint at 1 μM | 1.71

Source: patent US20240317683A1
